Parameter: self-splicing fitness (ln). Scope: all listed entries.
assay.info: self-splicing fitness, log relative to wild type (ln ratio); higher = more splicing; Tetrahymena group I intron in knt gene, E. coli kanamycin selection, DiMSum; sequences stand for … in CUCUCU…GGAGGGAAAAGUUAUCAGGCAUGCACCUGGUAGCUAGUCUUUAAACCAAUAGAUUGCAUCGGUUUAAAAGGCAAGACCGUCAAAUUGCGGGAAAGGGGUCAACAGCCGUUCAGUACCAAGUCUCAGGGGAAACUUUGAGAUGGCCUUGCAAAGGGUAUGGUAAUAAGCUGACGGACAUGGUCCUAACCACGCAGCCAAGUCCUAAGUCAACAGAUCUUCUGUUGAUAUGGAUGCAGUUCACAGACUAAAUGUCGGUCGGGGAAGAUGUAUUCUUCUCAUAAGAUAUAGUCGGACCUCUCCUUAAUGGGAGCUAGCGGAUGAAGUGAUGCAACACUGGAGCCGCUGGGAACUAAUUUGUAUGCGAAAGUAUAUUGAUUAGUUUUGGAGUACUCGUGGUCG;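 further: selection with 25 µg/mL kanamycin versus none on LB agar overnight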
measurement.setup: 37 °C

residues: CCCAAGCAAUAUUACGUGAA
self-splicing fitness (ln): -2.13
--
residues: UAGAAGCAAUAUUACGGUUG
self-splicing fitness (ln): -0.948
--
residues: GGCGAGCAAUAUUACGUGAC
self-splicing fitness (ln): -1.65
--
residues: AAAAAGCAAUAUUACGGUUC
self-splicing fitness (ln): -1.81
--
residues: GUUGAGCAAUAUUACGAGAC
self-splicing fitness (ln): -0.388
--
residues: UACUAGCAAUAUUACGUUUU
self-splicing fitness (ln): -1.82
--
residues: UGCUAGCAAUAUUACGUCUA
self-splicing fitness (ln): -0.84
--
residues: UACUAGCAAUAUUACGACAA
self-splicing fitness (ln): -0.256
--
residues: GCCCAGCAAUAUUACGGAAG
self-splicing fitness (ln): -1.4
--
residues: AUAGAGCAAUAUUACGUCCG
self-splicing fitness (ln): -3.65
--
residues: CGACAGCAAUAUUACGCCAU
self-splicing fitness (ln): -1.51
--
residues: UUGUAGCAAUAUUACGAAAA
self-splicing fitness (ln): -0.986
--
residues: ACACAGCAAUAUUACGUCGC
self-splicing fitness (ln): -2.56
--
residues: UCAGAGCAAUAUUACGGUGA
self-splicing fitness (ln): -0.193
--
residues: UGAAAGCAAUAUUACGCCGG
self-splicing fitness (ln): -0.346
--
residues: UGGUAGCAAUAUUACGACGU
self-splicing fitness (ln): -0.0819
--
residues: CACCAGCAAUAUUACGGGGG
self-splicing fitness (ln): -2.64
--
residues: GCGGAGCAAUAUUACGGGGC
self-splicing fitness (ln): -1.65
--
residues: GAAGAGCAAUAUUACGCGUU
self-splicing fitness (ln): -3.12
--
residues: GUAAAGCAAUAUUACGGUGA
self-splicing fitness (ln): -0.575
--
residues: GUUUAGCAAUAUUACGACUG
self-splicing fitness (ln): -0.416
--
residues: AUCCAGCAAUAUUACGAACA
self-splicing fitness (ln): -0.748
--
residues: GGCGAGCAAUAUUACGAGGA
self-splicing fitness (ln): -2.43
--
residues: GCUAAGCAAUAUUACGCAGG
self-splicing fitness (ln): -3.55
--
residues: AACAAGCAAUAUUACGUCAA
self-splicing fitness (ln): -1.59
--
residues: UAUAAGCAAUAUUACGCGUA
self-splicing fitness (ln): -0.627
--
residues: CACCAGCAAUAUUACGUUAU
self-splicing fitness (ln): -3.32
--
residues: GUCGAGCAAUAUUACGGUUA
self-splicing fitness (ln): 0.142
--
residues: CGGGAGCAAUAUUACGCUUG
self-splicing fitness (ln): -2.34
--
residues: GCGGAGCAAUAUUACGGUAC
self-splicing fitness (ln): -2.04
--
residues: CUUAAGCAAUAUUACGUGGG
self-splicing fitness (ln): -2.26
--
residues: UCCGAGCAAUAUUACGACUU
self-splicing fitness (ln): -2.98
--
residues: CAGGAGCAAUAUUACGGAGA
self-splicing fitness (ln): -2.34
--
residues: UACUAGCAAUAUUACGCUGC
self-splicing fitness (ln): -3.01
--
residues: GGCUAGCAAUAUUACGCAGG
self-splicing fitness (ln): -1.81
--
residues: UUGUAGCAAUAUUACGGACA
self-splicing fitness (ln): -0.454
--
residues: AACCAGCAAUAUUACGACUG
self-splicing fitness (ln): -1.83
--
residues: AGAGAGCAAUAUUACGAUGG
self-splicing fitness (ln): -1.17
--
residues: CUACAGCAAUAUUACGUUAG
self-splicing fitness (ln): -2.54
--
residues: UUGCAGCAAUAUUACGUAGG
self-splicing fitness (ln): -0.486
--
residues: CAGUAGCAAUAUUACGAGAC
self-splicing fitness (ln): -1.31
--
residues: CCAAAGCAAUAUUACGUAGG
self-splicing fitness (ln): -1.66
--
residues: AGAUAGCAAUAUUACGCGCG
self-splicing fitness (ln): -0.618
--
residues: AUGGAGCAAUAUUACGUUGG
self-splicing fitness (ln): -2.35
--
residues: UUUUAGCAAUAUUACGCUUA
self-splicing fitness (ln): -0.69
--
residues: UGCCAGCAAUAUUACGCACC
self-splicing fitness (ln): -1.32
--
residues: GAUCAGCAAUAUUACGGAUA
self-splicing fitness (ln): 0.0803
--
residues: GACUAGCAAUAUUACGUUGU
self-splicing fitness (ln): -2.17
--
residues: GUCCAGCAAUAUUACGCGGU
self-splicing fitness (ln): -2.14
--
residues: CCGGAGCAAUAUUACGCACU
self-splicing fitness (ln): -2.69
--
residues: UCUCAGCAAUAUUACGCGCU
self-splicing fitness (ln): -3.12
--
residues: AGCAAGCAAUAUUACGCAAG
self-splicing fitness (ln): -2.11
--
residues: CCUAAGCAAUAUUACGCUGC
self-splicing fitness (ln): -3.02
--
residues: GCAGAGCAAUAUUACGAAUA
self-splicing fitness (ln): -2.78
--
residues: UUAUAGCAAUAUUACGUUUC
self-splicing fitness (ln): -3.31
--
residues: UCCGAGCAAUAUUACGCAAC
self-splicing fitness (ln): -1.66
--
residues: CGAUAGCAAUAUUACGCCGU
self-splicing fitness (ln): -1.78
--
residues: UAGCAGCAAUAUUACGGUAU
self-splicing fitness (ln): -2.41
--
residues: CCCUAGCAAUAUUACGAUCU
self-splicing fitness (ln): -2.74
--
residues: UAAGAGCAAUAUUACGUCGU
self-splicing fitness (ln): -3.11
--
residues: GUAUAGCAAUAUUACGUUGU
self-splicing fitness (ln): -1.72
--
residues: CAACAGCAAUAUUACGAGUG
self-splicing fitness (ln): -0.292
--
residues: UAGCAGCAAUAUUACGCGAG
self-splicing fitness (ln): -0.971
--
residues: AGUUAGCAAUAUUACGGGUU
self-splicing fitness (ln): -1.53
--
residues: UAAAAGCAAUAUUACGCUAU
self-splicing fitness (ln): -2.2
--
residues: CGAGAGCAAUAUUACGGCGA
self-splicing fitness (ln): -1.28
--
residues: AAGGAGCAAUAUUACGGGCG
self-splicing fitness (ln): -1.87
